- SYSTEM: human TLR7 (Homo sapiens, UniProt Q9NYK1)
- Sequence (Q9NYK1 27-1049): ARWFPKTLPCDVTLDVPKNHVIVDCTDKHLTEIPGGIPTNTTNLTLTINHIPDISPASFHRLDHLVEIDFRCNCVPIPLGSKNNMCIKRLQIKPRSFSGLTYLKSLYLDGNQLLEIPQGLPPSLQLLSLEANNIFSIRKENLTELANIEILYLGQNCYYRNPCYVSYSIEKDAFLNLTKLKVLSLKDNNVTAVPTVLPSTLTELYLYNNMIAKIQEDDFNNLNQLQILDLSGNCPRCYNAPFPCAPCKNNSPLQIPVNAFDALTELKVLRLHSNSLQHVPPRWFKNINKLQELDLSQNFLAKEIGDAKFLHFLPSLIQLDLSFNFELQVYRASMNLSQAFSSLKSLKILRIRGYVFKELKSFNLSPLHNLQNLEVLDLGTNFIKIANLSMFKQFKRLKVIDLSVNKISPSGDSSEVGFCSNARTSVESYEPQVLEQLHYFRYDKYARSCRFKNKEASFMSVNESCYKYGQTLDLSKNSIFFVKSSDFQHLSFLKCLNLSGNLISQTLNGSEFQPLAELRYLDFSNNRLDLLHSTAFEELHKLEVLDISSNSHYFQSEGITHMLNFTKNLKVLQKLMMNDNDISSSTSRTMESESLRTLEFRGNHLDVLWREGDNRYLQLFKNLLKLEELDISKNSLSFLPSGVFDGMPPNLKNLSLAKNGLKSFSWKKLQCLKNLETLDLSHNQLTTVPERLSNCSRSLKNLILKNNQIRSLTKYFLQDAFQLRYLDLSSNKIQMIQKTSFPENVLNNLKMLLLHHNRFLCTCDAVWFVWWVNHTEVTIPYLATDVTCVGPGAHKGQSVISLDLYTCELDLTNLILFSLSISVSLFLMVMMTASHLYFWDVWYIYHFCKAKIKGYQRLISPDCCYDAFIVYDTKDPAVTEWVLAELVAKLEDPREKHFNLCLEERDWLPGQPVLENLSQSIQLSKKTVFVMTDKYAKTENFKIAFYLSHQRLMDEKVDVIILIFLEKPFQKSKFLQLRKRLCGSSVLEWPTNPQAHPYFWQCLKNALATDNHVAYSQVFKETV
- TEST: TLR7 inhibition reporter assay (HEK-Blue, SEAP)
- RUN_PARAMETERS: HEK-Blue cells overexpressing human TLR7, gardiquimod 7.5 μM, 22 hour incubation
MEASUREMENT_NAME: IC50 (nM)

(I) Cc1c(-c2[nH]c3ccc(C4CCN(Cc5cn(C)nn5)CC4)cc3c2C(C)C)cn2cnnc2c1Cl [Example 84]
(II) Cc1cc(-c2[nH]c3ccc(C4CCN(CC5COC5)CC4)cc3c2C(C)C)cn2cnnc12 [Example 30]
(III) Cc1c(-c2[nH]c3ccc(C4CCN(Cc5ncn(C)n5)CC4)cc3c2C(C)C)cn2cnnc2c1Cl [Example 47]
(IV) Cc1c(-c2[nH]c3ccc(C4CCN(Cc5ncn(C)n5)CC4)cc3c2C(C)C)ccc2nncn12 [Example 26]
List by increasing IC50. Response field: labels, in requested order.
II, III, I, IV

----------
- SYSTEM: human TLR8 (Homo sapiens)
- Sequence (Q9NR97 27-1041): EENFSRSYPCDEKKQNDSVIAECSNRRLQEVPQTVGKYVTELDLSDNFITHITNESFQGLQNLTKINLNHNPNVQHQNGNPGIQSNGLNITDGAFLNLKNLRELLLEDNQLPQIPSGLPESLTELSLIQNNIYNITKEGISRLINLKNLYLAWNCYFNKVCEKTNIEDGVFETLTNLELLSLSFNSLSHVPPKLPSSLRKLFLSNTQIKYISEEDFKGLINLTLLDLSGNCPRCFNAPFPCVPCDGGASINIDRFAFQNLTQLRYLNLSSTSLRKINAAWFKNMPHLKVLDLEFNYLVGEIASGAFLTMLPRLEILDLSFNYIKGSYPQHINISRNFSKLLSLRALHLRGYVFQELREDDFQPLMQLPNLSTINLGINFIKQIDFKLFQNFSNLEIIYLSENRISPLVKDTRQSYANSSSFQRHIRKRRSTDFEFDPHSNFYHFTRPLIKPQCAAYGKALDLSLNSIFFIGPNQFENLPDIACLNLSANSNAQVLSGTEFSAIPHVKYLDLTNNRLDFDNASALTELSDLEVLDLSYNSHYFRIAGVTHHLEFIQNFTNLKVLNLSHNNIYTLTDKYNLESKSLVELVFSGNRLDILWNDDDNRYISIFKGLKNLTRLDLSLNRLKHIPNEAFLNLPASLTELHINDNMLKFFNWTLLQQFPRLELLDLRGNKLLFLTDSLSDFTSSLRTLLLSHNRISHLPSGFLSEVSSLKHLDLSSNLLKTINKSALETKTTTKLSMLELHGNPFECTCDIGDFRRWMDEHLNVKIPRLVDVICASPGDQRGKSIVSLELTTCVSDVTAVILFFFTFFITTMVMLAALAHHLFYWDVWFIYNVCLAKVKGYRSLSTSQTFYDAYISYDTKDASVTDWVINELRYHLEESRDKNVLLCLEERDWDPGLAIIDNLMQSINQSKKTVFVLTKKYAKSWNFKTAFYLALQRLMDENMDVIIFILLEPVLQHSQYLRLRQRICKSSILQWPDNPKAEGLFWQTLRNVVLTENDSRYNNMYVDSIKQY
- TEST: TLR8 inhibition reporter assay (HEK-Blue, SEAP)
- RUN_PARAMETERS: HEK-Blue cells overexpressing human TLR8, R848 15.9 μM, 22 hour incubation
MEASUREMENT_NAME: IC50 (nM)

(a) Cc1c(-c2[nH]c3ccc(C4CCN(CC(=O)N(C)C)CC4)cc3c2C(C)C)cn2cnnc2c1C [Example 39]
(b) CNC(=O)CN1CCC(c2ccc3[nH]c(-c4ccc5nncn5c4C)c(C(C)C)c3c2)CC1 [Example 24]
(c) Cc1cc(-c2[nH]c3ccc(C4CCN(Cc5ccn(C)n5)CC4)cc3c2C(C)C)cn2cnnc12 [Example 74]
Please list the entries, largest IC50 first. Response field: labels, in requested order.
b, a, c
(b: 31.9 nM, a: 9.5 nM, c: 1.7 nM)

----------
- SYSTEM: human TLR7 (Homo sapiens, UniProt Q9NYK1)
- TEST: TLR7 inhibition reporter assay (HEK-Blue, SEAP)
- RUN_PARAMETERS: HEK-Blue cells overexpressing human TLR7, gardiquimod 7.5 μM, 22 hour incubation
- Excerpt: TLR7/8/9 Inhibition Reporter Assays HEK-Blue™-cells (Invivogen) overexpressing human TLR7, TLR8 or TLR9 receptors were used for screening inhibitors of these receptors using an inducible SEAP (secreted embryonic alkaline phosphatase) reporter gene under the control of the IFN-β minimal promoter fused to five NF-κB and AP-1-binding sites. […]
MEASUREMENT_NAME: IC50 (nM)

Worked set:
| MOLECULE | OBSERVED_VALUE |
| --- | --- |
| Cc1cc(-c2[nH]c3ccc(C4CCN(C5COC5)CC4)cc3c2C(C)C)cn2c(C)nnc12 | 11.8 |
| Cc1c(-c2[nH]c3ccc(C4CCN(CCS(C)(=O)=O)CC4)cc3c2C(C)C)cn2cnnc2c1Cl | 2.1 |
| Cc1c(-c2[nH]c3ccc(C4CCN(C5CCC(F)(F)CC5)CC4)cc3c2C(C)C)cn2cnnc2c1C | 12.3 |
| Cc1c(-c2[nH]c3ccc(C4CCN(CC(C)(C)O)CC4)cc3c2C(C)C)cn2cnnc2c1C | 1.7 |
| COCc1nnc2ccc(-c3[nH]c4ccc(C5CCN(CC(=O)N(C)C)CC5)cc4c3C(C)C)cn12 | 281 |

(A) Cc1cc(-c2[nH]c3ccc(C4CCNCC4)cc3c2C(C)C)cn2c(C)nnc12
(B) Cc1c(-c2[nH]c3ccc(C4CCN(CC#N)CC4)cc3c2C(C)C)cn2cnnc2c1C
(C) Cc1c(-c2[nH]c3ccc(C4CCN(CC5(C)COC5)CC4)cc3c2C(C)C)cn2cnnc2c1C
(D) Cc1c(-c2[nH]c3ccc(C4CCN(C5CCOC5)CC4)cc3c2C(C)C)cn2cnnc2c1C (stereo not shown) [Example 93]
(E) Cc1cc(-c2[nH]c3ccc(C4CCN(CC(=O)N(C)C)CC4)cc3c2C(C)C)c(C)n2cnnc12
// ranking: key=IC50, reverse=True Response field: labels, in requested order.
E, A, B, D, C
(E: 32.5 nM, A: 5.2 nM, B: 2.8 nM, D: 1.6 nM, C: 1.1 nM)

----------
- SYSTEM: human TLR9 (Homo sapiens, UniProt Q9NR96)
- Construct: host or cells: HEK-Blue cells
- Sequence (Q9NR96 26-1032): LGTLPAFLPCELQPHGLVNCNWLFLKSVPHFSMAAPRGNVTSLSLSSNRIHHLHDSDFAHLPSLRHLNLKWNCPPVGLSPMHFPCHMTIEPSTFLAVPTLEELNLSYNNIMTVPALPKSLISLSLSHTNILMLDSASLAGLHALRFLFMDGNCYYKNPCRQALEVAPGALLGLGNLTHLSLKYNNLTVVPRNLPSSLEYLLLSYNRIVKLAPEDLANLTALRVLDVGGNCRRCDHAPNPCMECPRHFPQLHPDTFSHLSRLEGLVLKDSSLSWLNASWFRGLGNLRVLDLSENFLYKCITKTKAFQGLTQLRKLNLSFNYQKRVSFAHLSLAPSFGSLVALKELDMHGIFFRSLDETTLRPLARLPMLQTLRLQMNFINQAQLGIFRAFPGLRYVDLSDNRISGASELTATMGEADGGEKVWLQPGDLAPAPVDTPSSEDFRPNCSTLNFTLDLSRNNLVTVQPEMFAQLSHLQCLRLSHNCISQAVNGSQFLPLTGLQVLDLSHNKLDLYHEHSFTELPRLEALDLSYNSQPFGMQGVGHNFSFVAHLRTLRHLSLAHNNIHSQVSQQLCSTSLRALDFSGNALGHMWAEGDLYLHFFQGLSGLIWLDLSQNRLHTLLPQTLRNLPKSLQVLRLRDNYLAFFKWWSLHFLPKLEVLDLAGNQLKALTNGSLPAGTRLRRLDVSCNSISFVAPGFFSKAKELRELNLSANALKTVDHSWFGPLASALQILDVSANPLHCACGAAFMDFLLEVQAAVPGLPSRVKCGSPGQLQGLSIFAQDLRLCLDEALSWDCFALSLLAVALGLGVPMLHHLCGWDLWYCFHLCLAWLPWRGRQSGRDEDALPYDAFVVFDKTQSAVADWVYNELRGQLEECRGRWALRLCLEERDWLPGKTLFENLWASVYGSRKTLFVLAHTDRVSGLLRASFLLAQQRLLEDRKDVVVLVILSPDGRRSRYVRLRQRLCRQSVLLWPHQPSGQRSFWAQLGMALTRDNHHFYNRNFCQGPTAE
- TEST: TLR9 inhibition reporter assay (HEK-Blue, SEAP)
- Type: cell-based
- RUN_PARAMETERS: HEK-Blue cells overexpressing human TLR9, ODN2006 5 nM, 22 hour incubation
MEASUREMENT_NAME: IC50 (µM)

| COMPOUND | IC50 [µM] |
| --- | --- |
| CNC(=O)CN1CCC(c2ccc3[nH]c(-c4cn5cnnc5cc4C)c(C(C)C)c3c2)CC1 | 1.1 |

(a) Cc1cc(-c2[nH]c3ccc(C4CCN(CCCC(F)(F)F)CC4)cc3c2C(C)C)c(C)n2cnnc12
(b) Cc1c(-c2[nH]c3ccc(C4CCN(CCCC(F)(F)F)CC4)cc3c2C(C)C)cn2cnnc2c1C
Select one: a or b . Criterion: greater recorded IC50. Pick one and reply with its label.
a
(a: 2.85 µM, b: 1.75 µM)

(P) Cc1cc(-c2[nH]c3ccc(C4CCN(CC5COC5)CC4)cc3c2C(C)C)cn2cnnc12
(Q) Cc1cc2nncn2cc1-c1[nH]c2ccc(C3CCN(Cc4ncn(C)n4)CC3)cc2c1C(C)C
Given P and given Q , which shows the smaller recorded IC50? Pick one and reply with its label.
P

(1) Cc1cc(-c2[nH]c3ccc(C4CCN(C5CCOCC5)CC4)cc3c2C(C)C)c(C)n2cnnc12
(2) Cc1cc(-c2[nH]c3ccc(C4CCN(CC(C)(C)O)CC4)cc3c2C(C)C)cn2cnnc12
Given 1 and given 2 , which shows the smaller recorded IC50? Pick one and reply with its label.
2

(I) Cc1nnc2ccc(-c3[nH]c4ccc(C5CCNCC5)cc4c3C(C)C)cn12
(II) Cc1cc(-c2[nH]c3ccc(C4CCNCC4)cc3c2C(C)C)cn2c(C)nnc12
(III) COc1cc(-c2[nH]c3ccc(C4CCN(C5CCOC5)CC4)cc3c2C(C)C)cn2cnnc12 (stereo not shown)
Sort (3 compounds) by IC50: min first. Response field: labels, in requested order.
I, II, III
